tested on: Zea mays; experiment: Pre-emergence herbicidal activity, ZEAMX; type: in vivo; settings: Application pre-emergence, 1000 g/Ha, evaluated after 13 days, scale 0-5
Classify as follows. Reported ZEAMX damage score greater than or equal to 2: criterion met. Reported ZEAMX damage score below: criterion not met.

Examples with answers:
| MOLECULE | CATEGORY LABEL |
| --- | --- |
| COCCOCc1cnc(N2C(=O)N(C)CC2O)cc1C(F)(F)F (stereo not drawn) | criterion met |
| CC(=O)Nc1ccccc1-c1cnc(N2C(=O)N(C)CC2O)cc1C(F)(F)F (stereo not drawn) | criterion not met |

Let us examine a further case.
Query: # check: ZEAMX damage score of CN1CC(O)N(c2cc(C(F)(F)F)c(-c3cccc(S(=O)(=O)N(C)C)c3)cn2)C1=O (stereo not drawn) is greater than or equal to 2
Response: criterion met

---

system: Zea mays; test: Pre-emergence herbicidal activity, ZEAMX; assay type: in vivo; conditions: Application pre-emergence, 1000 g/Ha, evaluated after 13 days, scale 0-5
Recorded ZEAMX damage score by entry
Simply state the number, no unit and no words.

| COMPOUND | ZEAMX damage score |
| --- | --- |
| CN1CC(O)N(c2cc(C(F)(F)F)c(Br)cn2)C1=O (centres unmarked) [Compound A19] | 5 |
| CN1CC(O)N(c2cc(C(C)(C)F)ccn2)C1=O (centres unmarked) [Compound A38] | 0 |
| CN1CC(O)N(c2cc(C(F)F)ccn2)C1=O (centres unmarked) [Compound A44] | 2 |
| CN1CC(O)N(c2cc(C(F)(F)F)c(-c3cccc([S+](C)[O-])c3)cn2)C1=O (centres unmarked) [Compound A11] | 0 |

# evaluate next
Query: Query (compound): CN1CC(O)N(c2cc(C(F)(F)F)c(Cl)cn2)C1=O (centres unmarked) [Compound A36] ; field requested: ZEAMX damage score
Response: 2

---

system: Abutilon theophrasti; test: Pre-emergence herbicidal activity, ABUTH; type: in vivo; details: Application pre-emergence, 1000 g/Ha, evaluated after 13 days, scale 0-5
Measured ABUTH damage score by item
Number only, no unit.

| MOLECULE | RECORDED RESULT |
| --- | --- |
| Cc1ccc(-c2cnc(N3C(=O)N(C)CC3O)cc2C(F)(F)F)cn1 (stereo not shown) | 5 |

Query: # get_value(readout='ABUTH damage score', item= COC(F)(F)c1ccnc(N2C(=O)N(C)CC2O)c1 (stereo not shown) )
Response: 2

Query: Also need CN1CC(O)N(c2cc(C(F)(F)Cl)ccn2)C1=O (stereo not shown) , thanks.
Response: 5

Query: // next record COc1cnc(N2C(=O)N(C)CC2O)cc1C(F)(F)F (stereo not shown)
Response: 5

Query: Also CN1CC(O)N(c2cc(C(F)F)ccn2)C1=O (stereo not shown) , if possible.
Response: 5

Query: What would you report for CN1CC(O)N(c2cc(C(F)(F)F)c(-c3ccc(C#N)cc3)cn2)C1=O (stereo not shown) ?
Response: 3

Query: One more molecule: CCOC(=O)c1cncc(-c2cnc(N3C(=O)N(C)CC3O)cc2C(F)(F)F)c1 (stereo not shown)
Response: 5

Query: Cc1cnc(N2C(=O)N(C)CC2O)cc1C(F)(F)F (stereo not shown) , same question.
Response: 5

Query: Cool, now CN1CC(O)N(c2cc(C(F)(F)F)c(-c3cccc(NS(C)(=O)=O)c3)cn2)C1=O (stereo not shown)
Response: 2

Query: Next: CN1CC(O)N(c2cc(C(F)(F)F)c(-c3cccc([S+](C)[O-])c3)cn2)C1=O (stereo not shown)
Response: 2

---

tested on: Abutilon theophrasti; experiment: Pre-emergence herbicidal activity, ABUTH; type: in vivo; details: Application pre-emergence, 1000 g/Ha, evaluated after 13 days, scale 0-5
REPORTED PROPERTY: ABUTH damage score
API note: the answer field is a bare number with no unit suffix.

Sample records with ABUTH damage score:
| COMPOUND | SUBJECT OF TEST | REPORTED PROPERTY | RECORDED RESULT |
| --- | --- | --- | --- |
| COCc1cnc(N2C(=O)N(C)CC2O)cc1C(F)(F)F (centres unmarked) | Abutilon theophrasti | ABUTH damage score | 5 |
| CN1CC(O)N(c2cc(C(F)(F)F)c(Br)cn2)C1=O (centres unmarked) | Abutilon theophrasti | ABUTH damage score | 5 |
| Cc1ccccc1-c1cnc(N2C(=O)N(C)CC2O)cc1C(F)(F)F (centres unmarked) | Abutilon theophrasti | ABUTH damage score | 2 |
| CN1CC(O)N(c2cc(C(C)(C)F)ccn2)C1=O (centres unmarked) | Abutilon theophrasti | ABUTH damage score | 5 |
| COc1ccccc1-c1cnc(N2C(=O)N(C)CC2O)cc1C(F)(F)F (centres unmarked) | Abutilon theophrasti | ABUTH damage score | 2 |
| COC(C)(C)c1ccnc(N2C(=O)N(C)CC2O)c1 (centres unmarked) | Abutilon theophrasti | ABUTH damage score | 5 |

Query: What value of measured ABUTH damage score is listed for COCc1cccc(-c2cnc(N3C(=O)N(C)CC3O)cc2C(F)(F)F)c1 (centres unmarked) ?
Response: 2

Query: Same read-out for CN1CC(O)N(c2cc(C(F)(F)F)ccn2)C1=O (centres unmarked) ?
Response: 5

Query: Same lookup for CN1CC(O)N(c2cc(C(F)(F)F)c(-c3cnn(C)c3)cn2)C1=O (centres unmarked) , please.
Response: 5

Query: Now this one: COc1ccc(-c2cnc(N3C(=O)N(C)CC3O)cc2C(F)(F)F)c(OC)n1 (centres unmarked)
Response: 5

Query: Another compound: CN1CC(O)N(c2cc(C(F)(F)F)c(-c3ccc(F)nc3)cn2)C1=O (centres unmarked)
Response: 5

---

tested on: Zea mays; assay: Pre-emergence herbicidal activity, ZEAMX; assay type: in vivo; conditions: Application pre-emergence, 1000 g/Ha, evaluated after 13 days, scale 0-5
Consider the cut-off 3. If the recorded ZEAMX damage score is strictly smaller, the label is fulfilled; if not, the label is not fulfilled.

| COMPOUND | SUBJECT OF TEST | CATEGORY LABEL |
| --- | --- | --- |
| CN1CC(O)N(c2cc(C(F)(F)F)c(-c3cccc(C#N)c3)cn2)C1=O (centres unmarked) | Zea mays | fulfilled |
| Cc1cnc(N2C(=O)N(C)CC2O)cc1C(F)(F)F (centres unmarked) | Zea mays | not fulfilled |
| COc1ccc(-c2cnc(N3C(=O)N(C)CC3O)cc2C(F)(F)F)c(OC)n1 (centres unmarked) | Zea mays | fulfilled |
| CN1CC(O)N(c2cc(C(F)(F)C(F)(F)F)ccn2)C1=O (centres unmarked) | Zea mays | fulfilled |
| COC(F)(F)c1ccnc(N2C(=O)N(C)CC2O)c1 (centres unmarked) | Zea mays | fulfilled |

Then there is this compound:
Query: Does CN1CC(O)N(c2cc(C(F)F)c(Cl)cn2)C1=O (centres unmarked) have ZEAMX damage score strictly under 3?
Response: fulfilled

---

tested on: Zea mays; assay: Pre-emergence herbicidal activity, ZEAMX; format: in vivo; conditions: Application pre-emergence, 1000 g/Ha, evaluated after 13 days, scale 0-5
Listing of recorded ZEAMX damage score by entry.
Just the number, please, no unit after it.

Query: Given the entry CN1CC(O)N(c2cc(Cl)c(C(=O)NC(C)(C)C)cn2)C1=O (stereo not drawn) , report its measured ZEAMX damage score.
Response: 3

---

Test system: Zea mays
Assay: Pre-emergence herbicidal activity, ZEAMX
Type: in vivo
Conditions: Application pre-emergence, 1000 g/Ha, evaluated after 13 days, scale 0-5
Experimental: Seeds of a variety of test species were sown in standard soil in pots. […] After 13 days, the test was evaluated (5=total damage to plant; 0=no damage to plant).
# reported ZEAMX damage score; entries follow
# respond with the number and nothing more

Some solved cases for reference:
| COMPOUND | ZEAMX damage score |
| --- | --- |
| CN1CC(O)N(c2cc(C(F)(F)F)c(-c3ccc(F)cc3)cn2)C1=O (centres unmarked) | 5 |
| Cc1ccccc1-c1cnc(N2C(=O)N(C)CC2O)cc1C(F)(F)F (centres unmarked) | 1 |
| CN1CC(O)N(c2cc(C(F)(F)F)c(-c3ccc(C#N)s3)cn2)C1=O (centres unmarked) | 2 |
| CN1CC(O)N(c2cc(C(F)(F)F)c(-c3ccsc3)cn2)C1=O (centres unmarked) | 2 |
| COCc1cnc(N2C(=O)N(C)CC2O)cc1C(F)(F)F (centres unmarked) | 3 |
| COC(C)(C)c1ccnc(N2C(=O)N(C)CC2O)c1 (centres unmarked) | 2 |

Query: Quick one: ZEAMX damage score for COc1ccc(-c2cnc(N3C(=O)N(C)CC3O)cc2C(F)(F)F)c(OC)c1 (centres unmarked) ?
Response: 0

Query: Also, CN1CC(O)N(c2cc(C(F)(F)F)c(-c3ccncc3C#N)cn2)C1=O (centres unmarked) please.
Response: 3

Query: And CN1CC(O)N(c2cc(C(F)(F)F)c(-c3cccc(NS(C)(=O)=O)c3)cn2)C1=O (centres unmarked) ?
Response: 2

Query: // repeat for CN(C)C(=O)c1cccc(-c2cnc(N3C(=O)N(C)CC3O)cc2C(F)(F)F)c1 (centres unmarked) and report
Response: 0

Query: Next compound up: CN1CC(O)N(c2cc(C(F)(F)F)c(C(=O)NC(C)(C)C)cn2)C1=O (centres unmarked)
Response: 2

Query: Ok, now CN1CC(O)N(c2cc(C(F)(F)F)c(-c3cncc(Cl)c3)cn2)C1=O (centres unmarked)
Response: 3

Query: Also check COc1cncc(-c2cnc(N3C(=O)N(C)CC3O)cc2C(F)(F)F)c1 (centres unmarked)
Response: 2

Query: Record: COc1cc(-c2cnc(N3C(=O)N(C)CC3O)cc2C(F)(F)F)ccn1 (centres unmarked)
Response: 2

The measurements presented in this section are drawn from patent US20160251332A1.
